A collection of molecules and their measured IC50
- ASSAYED SYSTEM: DP (Homo sapiens, UniProt Q13258)
- PROTOCOL SUMMARY: DP activity (IC50)
- Type: binding
- CONDITION: whole blood; read-out: DP IC50 (nM) whole blood
Write down the numeric answer in nM and omit the unit.

Example cases with answers are listed next.
Report value: IC50, system: DP (Homo sapiens, UniProt Q13258), molecule: O=C(O)Cc1cc(Cl)c(Oc2ccc(C(=O)NC3CCC3)cc2NS(=O)(=O)c2ccc(C3CC3)cc2Cl)cc1F
0.6

Report value: IC50, system: DP (Homo sapiens, UniProt Q13258), molecule: CC(C)(C)NC(=O)c1ccc(Oc2cc(F)c(CC(=O)O)cc2Cl)c(NS(=O)(=O)c2ccc(OC(F)(F)F)cc2Cl)c1
17.3

Report value: IC50, system: DP (Homo sapiens, UniProt Q13258), molecule: CC(C)(C)NC(=O)c1ccc(Oc2cc(F)c(CC(=O)O)cc2Cl)c(NS(=O)(=O)c2ccc(C(F)(F)F)cc2Cl)c1
26.6

Report value: IC50, system: DP (Homo sapiens, UniProt Q13258), molecule: CC(C)(C)NC(=O)c1ccc(Oc2cc(F)c(CC(=O)O)cc2Cl)c(NS(=O)(=O)c2ccc(C3CC3)cc2Cl)c1 [drawing 69]
1

---
Report value: IC50, system: DP (Homo sapiens, UniProt Q13258), molecule: CCC(C)(C)NC(=O)c1ccc(Oc2cc(F)c(CC(=O)O)cc2Cl)c(NS(=O)(=O)c2ccc(C)cc2Cl)c1
18.3

###

- ASSAYED SYSTEM: DP (Homo sapiens, UniProt Q13258)
- PROTOCOL SUMMARY: DP activity (IC50)
- Assay type: binding
- CONDITION: buffer; read-out: DP IC50 (nM) Buffer
METRIC: IC50 (nM)
Write down the numeric answer in nM and omit the unit.

Report value: IC50, system: DP (Homo sapiens, UniProt Q13258), compound: Cc1ccc(S(=O)(=O)Nc2cc(C(=O)NC3CCC3)ccc2Oc2cc(F)c(CC(=O)O)cc2Cl)c(Cl)c1
2.2

---
Report value: IC50, system: DP (Homo sapiens, UniProt Q13258), compound: CCNC(=O)c1ccc(Oc2ccc(CC(=O)O)cc2)c(NS(=O)(=O)c2ccc(Cl)cc2Cl)c1 [reference compound]
120

Report value: IC50, system: DP (Homo sapiens, UniProt Q13258), compound: CCCCNC(=O)c1ccc(Oc2ccc(CC(=O)O)cc2Cl)c(NS(=O)(=O)c2ccc(Cl)cc2)c1 [reference compound]
9.1

Report value: IC50, system: DP (Homo sapiens, UniProt Q13258), compound: CC1(NC(=O)c2ccc(Oc3cc(F)c(CC(=O)O)cc3Cl)c(NS(=O)(=O)c3ccc(C4CC4)cc3Cl)c2)CCC1
4.4

###

- ASSAYED SYSTEM: human CRTH2 (Homo sapiens, UniProt Q9Y5Y4)
- Construct: Full-length human CRTH2 cDNA was generated by polymerase chain reaction (PCR); expressed in transfected cells; host or cells: 293 cells stably transfected with pHLT124 (pCDNA3.1(+)), named 293(124)
- Sequence (Q9Y5Y4 1-395): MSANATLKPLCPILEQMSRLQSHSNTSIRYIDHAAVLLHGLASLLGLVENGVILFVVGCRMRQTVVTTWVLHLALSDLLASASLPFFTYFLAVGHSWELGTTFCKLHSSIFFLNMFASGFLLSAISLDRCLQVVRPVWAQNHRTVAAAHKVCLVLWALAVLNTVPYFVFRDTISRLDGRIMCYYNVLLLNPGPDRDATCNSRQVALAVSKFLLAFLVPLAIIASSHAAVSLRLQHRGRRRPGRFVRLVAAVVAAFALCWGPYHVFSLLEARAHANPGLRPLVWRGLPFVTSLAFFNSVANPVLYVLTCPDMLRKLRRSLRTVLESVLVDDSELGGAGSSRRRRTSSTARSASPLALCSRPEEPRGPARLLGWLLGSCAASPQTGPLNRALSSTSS
- PROTOCOL SUMMARY: Human CRTH2 binding assay (3H-PGD2, 293(124) cells)
- CONDITION: plasma; read-out: CRTH2 IC50 (nM) Plasma
METRIC: IC50 (nM)
Write down the numeric answer in nM and omit the unit.

Note IC50 for the compound shown: Cc1ccc(S(=O)(=O)Nc2cc(C(=O)NC(C)(C)C)ccc2Oc2cc(F)c(CC(=O)O)cc2Cl)c(Cl)c1
6.1

Note IC50 for the compound shown: Cc1ccc(S(=O)(=O)Nc2cc(C(=O)NC3CCC3)ccc2Oc2cc(F)c(CC(=O)O)cc2Cl)c(Cl)c1
7

Note IC50 for the compound shown: CCNC(=O)c1ccc(Oc2cc(Br)c(CC(=O)O)cc2OC)c(NS(=O)(=O)c2ccc(F)cc2F)c1 [reference compound]
25.7

Note IC50 for the compound shown: CCNC(=O)c1ccc(Oc2ccc(CC(=O)O)cc2Cl)c(NS(=O)(=O)c2ccc(Cl)cc2Cl)c1 [reference compound]
71

Note IC50 for the compound shown: CCC(C)(C)NC(=O)c1ccc(Oc2cc(F)c(CC(=O)O)cc2Cl)c(NS(=O)(=O)c2ccc(C)cc2Cl)c1
10.9

Note IC50 for the compound shown: CC(C)(C)NC(=O)c1ccc(Oc2cc(F)c(CC(=O)O)cc2Cl)c(NS(=O)(=O)c2ccc(C(F)(F)F)cc2Cl)c1
8.1

Note IC50 for the compound shown: CC(C)(C)NC(=O)c1ccc(Oc2cc(F)c(CC(=O)O)cc2Cl)c(NS(=O)(=O)c2ccc(C3CC3)cc2Cl)c1 [drawing 69]
8

Note IC50 for the compound shown: CC1(NC(=O)c2ccc(Oc3cc(F)c(CC(=O)O)cc3Cl)c(NS(=O)(=O)c3ccc(C4CC4)cc3Cl)c2)CCC1
7.6

Note IC50 for the compound shown: CC(C)(C)NC(=O)c1ccc(Oc2cc(F)c(CC(=O)O)cc2Cl)c(NS(=O)(=O)c2ccc(OC(F)(F)C(F)F)cc2Cl)c1
10.9

Note IC50 for the compound shown: CCNC(=O)c1ccc(Oc2ccc(CC(=O)O)cc2)c(NS(=O)(=O)c2ccc(Cl)cc2Cl)c1 [reference compound]
92

Consider now this further compound.
Note IC50 for the compound shown: CCC(C)(C)NC(=O)c1ccc(Oc2cc(F)c(CC(=O)O)cc2Cl)c(NS(=O)(=O)c2ccc(C(F)(F)F)cc2Cl)c1
35.8

###

- ASSAYED SYSTEM: DP (Homo sapiens, UniProt Q13258)
- Sequence (Q13258 1-359): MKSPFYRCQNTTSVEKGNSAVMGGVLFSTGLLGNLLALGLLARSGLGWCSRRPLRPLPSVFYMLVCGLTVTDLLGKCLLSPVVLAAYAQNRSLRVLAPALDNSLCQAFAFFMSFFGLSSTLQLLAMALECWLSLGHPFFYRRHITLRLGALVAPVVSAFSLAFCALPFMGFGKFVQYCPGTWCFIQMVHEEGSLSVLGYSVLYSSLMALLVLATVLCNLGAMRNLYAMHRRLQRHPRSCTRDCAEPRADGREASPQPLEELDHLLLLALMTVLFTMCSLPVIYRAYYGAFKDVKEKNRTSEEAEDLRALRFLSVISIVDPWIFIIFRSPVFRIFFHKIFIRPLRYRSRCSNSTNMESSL
- PROTOCOL SUMMARY: DP activity (IC50)
- Format: binding
- CONDITION: plasma; read-out: DP IC50 (nM) Plasma
METRIC: IC50 (nM)
Write down the numeric answer in nM and omit the unit.

Example cases with answers are listed next.
Report value: IC50, system: DP (Homo sapiens, UniProt Q13258), molecule: CC(C)(C)NC(=O)c1ccc(Oc2cc(F)c(CC(=O)O)cc2Cl)c(NS(=O)(=O)c2ccc(C(F)(F)F)cc2Cl)c1
43

Report value: IC50, system: DP (Homo sapiens, UniProt Q13258), molecule: CC(C)(C)NC(=O)c1ccc(Oc2cc(F)c(CC(=O)O)cc2Cl)c(NS(=O)(=O)c2ccc(C3CC3)cc2Cl)c1 [drawing 69]
26

Report value: IC50, system: DP (Homo sapiens, UniProt Q13258), molecule: Cc1ccc(S(=O)(=O)Nc2cc(C(=O)NC3(C)CCC3)ccc2Oc2cc(F)c(CC(=O)O)cc2Cl)c(Cl)c1
25.6

Report value: IC50, system: DP (Homo sapiens, UniProt Q13258), molecule: CC(C)(C)NC(=O)c1ccc(Oc2cc(F)c(CC(=O)O)cc2Cl)c(NS(=O)(=O)c2ccc(OC(F)(F)C(F)F)cc2Cl)c1
52.5

Report value: IC50, system: DP (Homo sapiens, UniProt Q13258), molecule: CC1(NC(=O)c2ccc(Oc3cc(F)c(CC(=O)O)cc3Cl)c(NS(=O)(=O)c3ccc(C4CC4)cc3Cl)c2)CCC1
25.7

---
Report value: IC50, system: DP (Homo sapiens, UniProt Q13258), molecule: Cc1ccc(S(=O)(=O)Nc2cc(C(=O)NC3CCC3)ccc2Oc2cc(F)c(CC(=O)O)cc2Cl)c(Cl)c1
22.9

Report value: IC50, system: DP (Homo sapiens, UniProt Q13258), molecule: CC1(NC(=O)c2ccc(Oc3cc(F)c(CC(=O)O)cc3Cl)c(NS(=O)(=O)c3ccc(OC(F)(F)F)cc3Cl)c2)CCC1
31.9
